Test system: NCI-H23
Experiment: NCI tumour cell line growth inhibition, 48 h
Activity calls are given as the source filed them. No stated cut-off is given here; in the data, active = GI50 up to about 1.1 µM and inactive = higher. Square brackets hold non-standard residues; d marks the D form. Peptide text beside a SMILES is read from it.
# output must be one of y for active, n for inactive

Record excerpt, results attached:
{"COMPOUND": "COc1ccc(NC(C)=O)cc1N1C(=O)/C(=C\\c2cccc(Oc3ccccc3)c2)SC1c1ccccc1 (stereo not drawn)", "GROUP_LABEL": "n"}
{"COMPOUND": "CCOC(=O)c1[nH]c(CN(C)Cc2[nH]c(C(=O)OCC)c(C)c2C(=O)OCc2ccccc2)c(C(=O)OCc2ccccc2)c1C", "GROUP_LABEL": "n"}
{"COMPOUND": "O=C(Cc1ccccc1)NN1C(=O)C(Cl)C1c1ccccc1O (stereo not drawn)", "GROUP_LABEL": "n"}

Any idea what this test logged for COc1ccccc1N1C(=O)/C(=C\c2cc(OC)c(OC)c(OC)c2)S(=O)(=O)C1c1ccccc1 (stereo not drawn) ?
n

Record request — test call for CN(C)Cc1cc(/C(=C(\C#N)c2ccccc2)c2ccc(O)cc2)ccc1O
n

How was COc1cc2c(cc1NC(=O)c1ccccc1)c1c(n2S(=O)(=O)c2ccccc2)CCN(S(=O)(=O)c2ccccc2)C1 classified in this test?
n

Status in this test for CCCN(CCC)C(=O)Cc1c2n(c3ccccc13)Cc1ccccc1-2 ?
n

Which outcome did this test record for the compound CC(=O)N(C(C)=O)c1cc2c3c(c1)CCCN3CCC2 ?
n

How did this test come out for C1=CC=C2NCCSCC/N=C3/C=CC=CC=C3NCCSCC/N=C\2C=C1 ?
n

Could you please tell me the result logged for N=C(N)NCCC[C@H]1NC(=O)[C@@H](CCC(=O)O)NC(=O)[C@@H](CC(=O)O)NC(=O)[C@@H](CCC(=O)O)NC(=O)[C@H](Cc2c[nH]c3ccccc23)NC1=O (cyclo(W[dE][dD][dE][dR])) in this assay?
n

Could you check what this test reported for Cc1nc2c(=O)n(-c3ccccc3)c(=O)n(-c3ccccc3)c2o1 ?
n

// return assay outcome for Nc1ccc(-c2ncc3cc(-c4cccc(-c5cc6cnc(-c7ccc(N)cc7)nc6c6ccccc56)c4)c4ccccc4c3n2)cc1
n

I'd appreciate the recorded outcome for CC(C)[C@H](O)C(=O)N[C@H]1Cc2ccc3c(c2)[C@]24C5=C(N=C(O5)[C@H](C(C)C)NC1=O)c1nc(Cl)c(o1)-c1c(Cl)[nH]c5cccc(c15)-c1cccc2c1N[C@H]4O3 from this test.
y

Check the results log: what was the call for O=C1OC(=O)C2C3C=CC(C12)C1C2C=CC2C31 (stereo not drawn) ?
n

Give the logged outcome of this assay for the following compound: c1ccc(C/C(=N\Nc2nc3ccccc3o2)c2ccccn2)cc1
y

Hi, sorry to bother you, what did the test record for COc1ccc2nc3cc(Cl)ccc3c(SCC(=O)Nc3ccccc3-c3ccccc3NC(=O)CSc3c4ccc(Cl)cc4nc4ccc(OC)cc34)c2c1 ?
n

# lookup: test call for COc1cc2nc(-c3cccs3)[nH]c(=O)c2cc1OC
n

# fetch the recorded call for CN(C)CCCc1cccnc1 here
n

Entry O=C(Nc1ccc(Cl)cc1Cl)c1c/c(=N\O)c2ccc(O)cc2o1 : call = ?
n

Any idea what this test logged for CC(=O)/N=C1/N(/C=C2\C(=O)Oc3ccccc3C2=O)C(=O)/C(=C/c2ccccc2Cl)N1C ?
n

Sourced from ChEMBL document CHEMBL1201862
